Just for reference, ChEMBL document CHEMBL1151714 is where these values come from.

Tested on: MDA-MB-231
ASSAY_TEXT: cells
CONDITION_LABEL: Homo sapiens, MDA-MB-231, 96 h
pIC50: −log10 of the molar value.

MOLECULE	pIC50
CN[C@@H](C)C(=O)N[C@H]1CNCC[C@H]2CC[C@@H](C(=O)NC(c3ccccc3)c3ccccc3)N2C1=O	6.05

====

System: Rattus norvegicus
ASSAY_TEXT: Cmax in Sprague-Dawley rat at 25 mg/kg, po
Type: ADME, organism-based
Design: dose 25 mg/kg, route oral
CONDITION_LABEL: in vivo

MOLECULE	Cmax [µM]
CN[C@@H](C)C(=O)N[C@H]1CCCC[C@H]2CC[C@@H](C(=O)NC(c3ccccc3)c3ccccc3)N2C1=O.Cl	0.545
